- Tested on: SK-MEL-28
- assay-overview: SRB colorimetric assay of cell growth and viability, SK-MEL-28
- Type: cell-based, human
- test-parameters: 48 hours exposure; read-out: LC50 MEL-28
Where a SMILES comes first, the peptide text is derived from it. Bridges are numbered along the chain shown (N, C = ends). [ ]: non-standard residue; d: D form. The star is where a group is joined. d(aIle) = CC[C@H](C)[C@@H](N)C(=O)O; d(aThr) = C[C@@H](O)[C@@H](N)C(=O)O; Hexanoyl(5-Me) = CC(C)CCCC(=O)*; Orn = NCCC[C@H](N)C(=O)O; Dhb = C/C=C(\N)C(=O)O
Parameter CC50: see the listing below.

compound="C/C=C1\\NC(=O)[C@H](Cc2ccccc2)NC(=O)[C@@H](C(C)C)NC(=O)[C@@H]([C@@H](C)CC)NC(=O)[C@H](NC(=O)[C@H](NC(=O)[C@H](CCCN)NC(=O)[C@H]2CCCN2C(=O)[C@H](NC(=O)[C@@H]2CCCN2C(=O)[C@@H](NC(=O)[C@H](NC(=O)CCCC(C)C)C(C)C)[C@@H](C)O)C(C)C)[C@@H](C)CC)[C@@H](C)OC(=O)[C@H](C(C)C)NC1=O [Compound 47, [Pro^11]-KF] ({Hexanoyl(5-Me)}-[dV]TP[dV][dP][Orn][d(aIle)][d(aThr)][d(aIle)][dV]F[Dhb]V; ester 8-C)" endpoint_label=CC50 reported_result="6.78 µM"

Below: the item to evaluate.
Record C/C=C1\NC(=O)[C@H](Cc2ccccc2)NC(=O)[C@@H](C(C)C)NC(=O)[C@@H]([C@@H](C)CC)NC(=O)[C@H](NC(=O)[C@H](NC(=O)[C@H](CCCN)NC(=O)[C@H]2CCCN2C(=O)[C@H](NC(=O)[C@@H](NC(=O)[C@@H](NC(=O)[C@H](NC(=O)CCCC(C)C)C(C)C)[C@@H](C)O)[C@@H](C)O)C(C)C)[C@@H](C)CC)[C@@H](C)OC(=O)[C@H](C(C)C)NC1=O [Compound 50, [Thr^11]-KF] ({Hexanoyl(5-Me)}-[dV]TT[dV][dP][Orn][d(aIle)][d(aThr)][d(aIle)][dV]F[Dhb]V; ester 8-C) : what is its CC50 with SK-MEL-28?
≥ 6.76 µM

* * *

- Tested on: LNCaP
- assay-overview: SRB colorimetric assay of cell growth and viability, LNCaP
- Assay type: cell-based, human
- test-parameters: 48 hours exposure; read-out: LC50 LN-caP
Where a SMILES comes first, the peptide text is derived from it. Bridges are numbered along the chain shown (N, C = ends). [ ]: non-standard residue; d: D form. The star is where a group is joined. d(aIle) = CC[C@H](C)[C@@H](N)C(=O)O; d(aThr) = C[C@@H](O)[C@@H](N)C(=O)O; Hexanoyl(5-Me) = CC(C)CCCC(=O)*; Orn = NCCC[C@H](N)C(=O)O; Dhb = C/C=C(\N)C(=O)O
Parameter CC50: see the listing below.
Entry rule: numbers only, all in µM.

compound="C/C=C1\\NC(=O)[C@H](Cc2ccccc2)NC(=O)[C@@H](C(C)C)NC(=O)[C@@H]([C@@H](C)CC)NC(=O)[C@H](NC(=O)[C@H](NC(=O)[C@H](CCCN)NC(=O)[C@H]2CCCN2C(=O)[C@H](NC(=O)[C@H](CCCN)NC(=O)[C@@H](NC(=O)[C@H](NC(=O)CCCC(C)C)C(C)C)[C@@H](C)O)C(C)C)[C@@H](C)CC)[C@@H](C)OC(=O)[C@H](C(C)C)NC1=O [Compound 49, [Orn^11]-KF] ({Hexanoyl(5-Me)}-[dV]T[Orn][dV][dP][Orn][d(aIle)][d(aThr)][d(aIle)][dV]F[Dhb]V; ester 8-C)" tested_on=LNCaP reported_result=6.7

Below: the item to evaluate.
Fill blank: measured CC50 of the compound C/C=C1\NC(=O)[C@H](Cc2ccccc2)NC(=O)[C@@H](C(C)C)NC(=O)[C@@H]([C@@H](C)CC)NC(=O)[C@H](NC(=O)[C@H](NC(=O)[C@H](CCCN)NC(=O)[C@H]2CCCN2C(=O)[C@H](NC(=O)[C@@H](NC(=O)[C@@H](NC(=O)[C@H](NC(=O)c2ccc(C(F)(F)F)cc2)C(C)C)[C@@H](C)O)C(C)C)C(C)C)[C@@H](C)CC)[C@@H](C)OC(=O)[C@H](C(C)C)NC1=O [Compound 21, [p-CF3Bza^14]-KF] is ____.
3.52

* * *

- Tested on: DU-145
- assay-overview: SRB colorimetric assay of cell growth and viability, DU-145
- Format: cell-based, human
- test-parameters: 48 hours exposure
Where a SMILES comes first, the peptide text is derived from it. Bridges are numbered along the chain shown (N, C = ends). [ ]: non-standard residue; d: D form. The star is where a group is joined. d(aIle) = CC[C@H](C)[C@@H](N)C(=O)O; d(aThr) = C[C@@H](O)[C@@H](N)C(=O)O; Hexanoyl(5-Me) = CC(C)CCCC(=O)*; Orn = NCCC[C@H](N)C(=O)O; Dhb = C/C=C(\N)C(=O)O
Rule for this label: 1.0 means LC50 (concentration causing 50% net cell kill) is less than 4 µM; 0.0 means LC50 (concentration causing 50% net cell kill) is at least 4 µM.

Worked set:
molecule="C/C=C1\\NC(=O)[C@H](Cc2ccccc2)NC(=O)[C@@H](C(C)C)NC(=O)[C@@H]([C@@H](C)CC)NC(=O)[C@H](NC(=O)[C@H](NC(=O)[C@H](CCCCN)NC(=O)[C@H]2CCCN2C(=O)[C@H](NC(=O)[C@@H](NC(=O)[C@@H](NC(=O)[C@H](NC(=O)CCCC(C)C)C(C)C)[C@@H](C)O)C(C)C)C(C)C)[C@@H](C)CC)[C@@H](C)OC(=O)[C@H](C(C)C)NC1=O [Compound 5, [Lys^8]-KF]" class_assignment=1.0
molecule="C/C=C1\\NC(=O)[C@H](Cc2ccccc2)NC(=O)[C@@H](C(C)C)NC(=O)[C@@H]([C@@H](C)CC)NC(=O)[C@H](NC(=O)[C@H](NC(=O)[C@H](CCCN)NC(=O)[C@H]2CCCN2C(=O)[C@H](NC(=O)[C@@H](NC(=O)[C@@H](NC(=O)[C@H](NC(=O)CC[C@H](C)CC)C(C)C)[C@@H](C)O)C(C)C)C(C)C)[C@@H](C)CC)[C@@H](C)OC(=O)[C@H](C(C)C)NC1=O [Compound 16, [(4R)-MeHex^14]-KF]" class_assignment=1.0
molecule="C/C=C1\\NC(=O)[C@H](Cc2ccccc2)NC(=O)[C@@H](C(C)C)NC(=O)[C@@H]([C@@H](C)CC)NC(=O)[C@H](NC(=O)[C@H](NC(=O)[C@H](CCCN)NC(=O)[C@H]2CCCN2C(=O)[C@H](NC(=O)[C@H](C)NC(=O)[C@@H](NC(=O)[C@H](NC(=O)CCCC(C)C)C(C)C)[C@@H](C)O)C(C)C)[C@@H](C)CC)[C@@H](C)OC(=O)[C@H](C(C)C)NC1=O [Compound 44, [Ala^11]-KF] ({Hexanoyl(5-Me)}-[dV]TA[dV][dP][Orn][d(aIle)][d(aThr)][d(aIle)][dV]F[Dhb]V; ester 8-C)" class_assignment=0.0
molecule="C/C=C1\\NC(=O)[C@H](Cc2ccccc2)NC(=O)[C@@H](C(C)C)NC(=O)[C@@H]([C@@H](C)CC)NC(=O)[C@H](NC(=O)[C@H](NC(=O)[C@H](CCCN)NC(=O)[C@H]2CCCN2C(=O)[C@H](NC(=O)[C@H](CCC(N)=O)NC(=O)[C@@H](NC(=O)[C@H](NC(=O)CCCC(C)C)C(C)C)[C@@H](C)O)C(C)C)[C@@H](C)CC)[C@@H](C)OC(=O)[C@H](C(C)C)NC1=O [Compound 48, [Gln^11]-KF] ({Hexanoyl(5-Me)}-[dV]TQ[dV][dP][Orn][d(aIle)][d(aThr)][d(aIle)][dV]F[Dhb]V; ester 8-C)" class_assignment=0.0
molecule="C/C=C1\\NC(=O)[C@H](Cc2ccccc2)NC(=O)[C@@H](C(C)C)NC(=O)[C@@H]([C@@H](C)CC)NC(=O)[C@H](NC(=O)[C@H](NC(=O)[C@H](CCCN)NC(=O)[C@H]2CCCN2C(=O)[C@H](NC(=O)[C@H](CCC(=O)O)NC(=O)[C@@H](NC(=O)[C@H](NC(=O)CCCC(C)C)C(C)C)[C@@H](C)O)C(C)C)[C@@H](C)CC)[C@@H](C)OC(=O)[C@H](C(C)C)NC1=O [Compound 51, [Glu^11]-KF] ({Hexanoyl(5-Me)}-[dV]TE[dV][dP][Orn][d(aIle)][d(aThr)][d(aIle)][dV]F[Dhb]V; ester 8-C)" class_assignment=0.0
molecule="C/C=C1\\NC(=O)[C@H](Cc2ccccc2)NC(=O)[C@@H](C(C)C)NC(=O)[C@@H]([C@@H](C)CC)NC(=O)[C@H](NC(=O)[C@H](NC(=O)[C@H](CCCN)NC(=O)[C@H]2CCCN2C(=O)[C@H](NC(=O)[C@@H](NC(=O)[C@@H](NC(=O)[C@H](NC(=O)CCCC(C)C)C(C)C)C(C)C)C(C)C)C(C)C)[C@@H](C)CC)[C@@H](C)OC(=O)[C@H](C(C)C)NC1=O [Compound 6, [Val^12]-KF] ({Hexanoyl(5-Me)}-[dV]VV[dV][dP][Orn][d(aIle)][d(aThr)][d(aIle)][dV]F[Dhb]V; ester 8-C)" class_assignment=1.0
molecule="C/C=C1\\NC(=O)[C@H](Cc2ccccc2)NC(=O)[C@@H](C(C)C)NC(=O)[C@@H]([C@@H](C)CC)NC(=O)[C@H](NC(=O)[C@H](NC(=O)[C@H](CCCN)NC(=O)[C@H]2CCCN2C(=O)[C@H](NC(=O)[C@@H](NC(=O)[C@@H](NC(=O)[C@H](NC(=O)CCCC(C)C)C(C)C)[C@@H](C)O)[C@@H](C)O)C(C)C)[C@@H](C)CC)[C@@H](C)OC(=O)[C@H](C(C)C)NC1=O [Compound 50, [Thr^11]-KF] ({Hexanoyl(5-Me)}-[dV]TT[dV][dP][Orn][d(aIle)][d(aThr)][d(aIle)][dV]F[Dhb]V; ester 8-C)" class_assignment=0.0

Problem: For the molecule C/C=C1\NC(=O)[C@H](Cc2ccccc2)NC(=O)[C@@H](C(C)C)NC(=O)[C@@H]([C@@H](C)CC)NC(=O)[C@H](NC(=O)[C@H](NC(=O)[C@H](CCCN)NC(=O)[C@H]2CCCN2C(=O)[C@H](NC(=O)[C@@H](NC(=O)[C@@H](NC(=O)[C@@H](Cc2ccccc2)NC(=O)CCCC(C)C)[C@@H](C)O)C(C)C)C(C)C)[C@@H](C)CC)[C@@H](C)OC(=O)[C@H](C(C)C)NC1=O [Compound 36, [D-Phe^13]-KF] , is LC50 (concentration causing 50% net cell kill) under 4 µM?
1.0
